All values here come from ChEMBL document CHEMBL2086380.

Experiment: AUC in mouse at 25 mg/kg, po
Type: ADME, organism-based, Plasma
Set-up: dose 25 mg/kg, route oral
Conditions: plasma
PROPERTY: AUC (µM·h)
Could you give me the number in µM·h? Just the number is fine.

Data request: // lookup AUC for `C[C@H](O)CONC(=O)c1oc2c(F)cncc2c1Nc1ccc(I)cc1F`
Data returned: 192

====

Assay: Volume of distribution at steady state in mouse at 1 mg/kg, iv
Type: ADME, organism-based
Set-up: dose 1 mg/kg, route intravenous
Conditions: in vivo, read-out: Vdss
Measured Vd by item
Numbers only here, please. The scale is L/kg.

C[C@H](O)CONC(=O)c1oc2c(F)cncc2c1Nc1ccc(I)cc1F 0.71

Consider now this further compound.
Data request: Which Vd is listed for `O=C(NOCCO)c1ccc2[nH]ncc2c1Nc1ccc(I)cc1F` ?
Data returned: 2
